experiment: Binding affinity to amyloid beta (1 to 42) fibrils by change in fluorescence at 100 uM after 10 mins
Activity calls are given as the source filed them. The rule behind the calls is not given here.
property_name: Activity

{"smiles_input": "COc1ccc(C=O)cc1OC", "recorded_result": "inactive"}
{"smiles_input": "O=c1c(-c2ccc(O)cc2)coc2cc(O)cc(O)c12", "recorded_result": "inactive"}
{"smiles_input": "COc1cc(/C=C/C(=O)c2ccccc2)ccc1O", "recorded_result": "inactive"}
{"smiles_input": "COc1cc(/C=C/C(=O)O)ccc1O", "recorded_result": "Active"}
{"smiles_input": "O=Cc1cccc(O)c1", "recorded_result": "inactive"}
{"smiles_input": "O=c1c(O)c(-c2ccc(O)c(O)c2)oc2cc(O)cc(O)c12", "recorded_result": "inactive"}
{"smiles_input": "COc1ccc(/C=C/c2ccc(/C=C/c3ccc(OC)c(OCc4ccccc4)c3)c(Br)c2)cc1OCc1ccccc1", "recorded_result": "Active"}
{"smiles_input": "CN(C)c1ccc2nc3ccc(N)cc3[s+]c2c1", "recorded_result": "inactive"}
{"smiles_input": "CN(C)[C@@H]1C(O)=C(C(=O)NCN2CCCC2)C(=O)[C@@]2(O)C(O)=C3C(=O)c4c(O)cccc4[C@@](C)(O)[C@H]3C[C@@H]12", "recorded_result": "inactive"}
{"smiles_input": "COc1ccc(/C=C/c2cc(OC)cc(OC)c2)cc1", "recorded_result": "inactive"}
{"smiles_input": "O=C1C=Cc2ccccc2C1=O", "recorded_result": "Active"}
{"smiles_input": "O=C1c2ccccc2Cc2ccccc21", "recorded_result": "inactive"}
{"smiles_input": "O=c1oc2c(O)c(O)cc3c(=O)oc4c(O)c(O)cc1c4c23", "recorded_result": "inactive"}
{"smiles_input": "COc1cc(/C=C/C(=O)NCCCCNC(=O)/C=C/c2ccc(O)c(OC)c2)ccc1O", "recorded_result": "inactive"}
{"smiles_input": "COc1ccc(/C=C/C(=O)CC(=O)/C=C/c2ccc(OC)c(OC)c2)cc1OC", "recorded_result": "inactive"}
{"smiles_input": "Nc1ccc(/N=N/c2ccc(-c3ccc(/N=N/c4c(S(=O)(=O)O)cc5cc(S(=O)(=O)O)c(/N=N/c6ccccc6)c(O)c5c4N)cc3)cc2)c(N)c1", "recorded_result": "inactive"}
{"smiles_input": "Nc1c2ccccc2nc2ccccc12", "recorded_result": "Active"}
{"smiles_input": "O=C(c1ccccc1O)c1ccccc1O", "recorded_result": "inactive"}
{"smiles_input": "COc1ccc2[nH]cc(CCNC(C)=O)c2c1", "recorded_result": "Active"}
{"smiles_input": "COc1ccc(/C=C/C(=O)c2cccc(N)c2)cc1OC", "recorded_result": "inactive"}
{"smiles_input": "COc1ccc(/C=C/c2cccc(/C=C/c3ccc(OC)c(OC)c3)c2)cc1OC", "recorded_result": "Active"}
{"smiles_input": "COc1ccc(C=O)cc1", "recorded_result": "inactive"}
{"smiles_input": "O=C(c1ccccc1)c1ccc(O)c(O)c1O", "recorded_result": "inactive"}
{"smiles_input": "CN(C)c1ccc(O)c2c1C[C@H]1C[C@H]3[C@H](N(C)C)C(O)=C(C(N)=O)C(=O)[C@@]3(O)C(O)=C1C2=O", "recorded_result": "inactive"}
